// provenance: patent US20120189639A1

# TARGET_SYSTEM: T1, human GITR on naïve CD4+ T cells (human, UniProt Q9Y5U5 26-241)
# T1 sequence: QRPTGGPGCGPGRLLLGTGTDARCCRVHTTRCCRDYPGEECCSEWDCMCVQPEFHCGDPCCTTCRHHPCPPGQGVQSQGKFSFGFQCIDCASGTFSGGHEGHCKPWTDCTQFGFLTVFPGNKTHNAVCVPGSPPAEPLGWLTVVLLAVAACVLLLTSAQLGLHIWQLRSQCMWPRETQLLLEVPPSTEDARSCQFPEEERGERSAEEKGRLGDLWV
# METHOD_DESCRIPTION: cell-based or functional assay
MEASUREMENT_NAME: proliferation of naïve CD4+ T cells, mean, at 2.2 ng/mL Ab
No unit in the answer, only the number.

QUERY: Reported proliferation of naïve CD4+ T cells, mean, at 2.2 ng/mL Ab, binder 17F10 (antibody, V domains shown, Parental rodent anti-human GITR monoclonal antibody from a hybridoma; kappa VL; also called 17F10.B1) VH: EVKLVESGGGFVKPGGSLKLSCAASGFTVRNYAMSWVRQTPEKRLEWVASISTGDRSYLPDSMKGRFTISRDNARNILYLQMSSLRSEDTAIYYCQRYFDFDSFAFWGQGTLVTVSA VL: DIQMTQTPSSLSASLGDRVTISCRASQDINNFLNWYQQKPDGSLKLLIYYTSKLHSGVPSRFSGSGSGTDFSLTISNLDQEDVATYFCQQGHTLPPTFGGGTKLEVKR : ____
RESULT: 73400

QUERY: Reported proliferation of naïve CD4+ T cells, mean, at 2.2 ng/mL Ab, binder 35D8 (antibody, V domains shown, Parental rodent anti-human GITR monoclonal antibody from a hybridoma; kappa VL; also called 35D8.B10) VH: EVQLQESGPSLVKPSQTLSLTCSVTGDSITSGYWNWIRKFPGNKLEYMGYISYSGSTYYNPSLRGRISITRDTSKSQYYLQLSSVTTEDTATYYCSRRHLGSGYGWFAYWGQGTLVTVSA VL: DIVMTQSHKFMSTSVGDRVSITCKASQDVNTAVAWYQQKPGQSPKLLIYWASTRHTGVPDRFTGSGSGTDYALTINSVQAEDLALYYCQQHSYTPPWTFGGGTKLEIRR : ____
RESULT: 59800

QUERY: Reported proliferation of naïve CD4+ T cells, mean, at 2.2 ng/mL Ab, binder 49A1 (antibody, V domains shown, Parental rodent anti-human GITR monoclonal antibody from a hybridoma; kappa VL; also called 49A1.B1) VH: EVQLQESGPSLVKPSQTLSLTCSVTGDSITSGYWNWIRKFPGNKFEYMGFISYSGNTYYNPSLRSRISITRDTSKNQYFLHLNSVTTEDTATYYCSRRHLISGYGWFAYWGQGTLVTVSA VL: VIVMTQSHKFMSTSIGDRVNITCKASQDVISAVAWYQQKPGQSPKLLIYWASTRHTGVPDRFTGSGSGTDFTLTINSVQAEDRALYYCQQHSYTPPWTFGGGTNLEIKR : ____
RESULT: 61100

QUERY: Reported proliferation of naïve CD4+ T cells, mean, at 2.2 ng/mL Ab, binder 9E5 (antibody, V domains shown, Parental rodent anti-human GITR monoclonal antibody from a hybridoma; kappa VL; also called 9E5.C1) VH: QVTLKESGPGILQPSQTLSLTCTFSGFSLSTYGVGVGWIRQPSGKGLEWLANIWWDDDNYYNPSLIHRLTVSKDTSNNQAFLKITNVDTAETATYYCAQIKEPRDWFFEFWGPGTMVSVSS VL: DIQMTQTPSSMPASLGERVTIFCRASQGVNNFLTWYQQKPDGTIKPLIFYTSNLQSGVPSRFSGSGSGTDYSLSISSLEPEDFAMYYCQQYHGFPNTFGAGTKLELKR : ____
RESULT: 69200

QUERY: Reported proliferation of naïve CD4+ T cells, mean, at 2.2 ng/mL Ab, binder 31H6 (antibody, V domains shown, Parental rodent anti-human GITR monoclonal antibody from a hybridoma; kappa VL; also called 31H6.B7) VH: QVTLKESGPGILQPSQTLSLTCTFSGFSLSTYGVGVGWIRQPSGKGLEWLANIWWDDDKYYNPSLKNRLTISKDTSNNQAFLKITNVDTAETATYYCAQIKEPRDWFFEFWGPGTMVSVSS VL: DIQMTQTPSSMPASLGERVTIFCRASQGVNNYLTWYQQKPDGTIKPLIFYTSNLQSGVPSRFSGSGSGTDYSLSISSLEPEDFAMYYCQQYHGFPNTFGAGTKLELKR : ____
RESULT: 67600

QUERY: Reported proliferation of naïve CD4+ T cells, mean, at 2.2 ng/mL Ab, binder 1D8 (antibody, V domains shown, Parental rodent anti-human GITR monoclonal antibody from a hybridoma; kappa VL; also called 1D8.B5) VH: QVTLKESGPGILKPSQTLSLTCSFSGFSLSTSGMGVGWIRQPSGKGLEWLAHIWWDDDKYYSPSLKSQLTISKDTSRNQVFLKITSLDTADTATYYCVRSYYYGSSGAMDYWGQGTSVTVSS VL: DIVMTQTPLSLPVSLGDQASISCRSSQSLVHSDGNTYLHWYLQKPGQSPKLLIYKVSKRFSGVPDRFSGSGSGTDFTLKISRVEAEDLGVYFCSQSTHVPPTFGGGTKLEIKR : ____
RESULT: 78500
